# Method Notes: Apparent permeability from basolateral to apical side of human Caco2 cells at 2 uM after 60 to 120 mins
# Assay type: ADME, cell-based
# Condition Label: Caco-2
Can you tell me Papp B→A at 2 µM for the items I'm about to list?
Please respond with the number in ×10⁻⁶ cm/s and leave the unit unwritten.

Memo: COc1cc2nc(N3CCN(C(=O)c4ccco4)CC3)nc(N)c2cc1OC [PRAZOSIN] , reported Papp B→A at 2 µM: 41.1

For reference, reported Papp B→A at 2 µM for CC(C)c1nc(N(C)S(C)(=O)=O)nc(-c2ccc(F)cc2)c1/C=C/[C@@H](O)C[C@@H](O)CC(=O)[O-].CC(C)c1nc(N(C)S(C)(=O)=O)nc(-c2ccc(F)cc2)c1/C=C/[C@@H](O)C[C@@H](O)CC(=O)[O-].[Ca+2] [ROSUVASTATIN CALCIUM] stands at 20.7

----------
# Method Notes: Efflux ratio of apparent permeability from basolateral to apical over apical to basolateral side of human Caco2 cells at 2 uM after 60 to 120 mins
# Type: ADME, cell-based
# Condition Label: Caco-2
Kindly state efflux ratio at 2 µM for each of the entries shown.
Respond using a number only.

efflux ratio at 2 µM recorded for this molecule, CC(C)c1nc(N(C)S(C)(=O)=O)nc(-c2ccc(F)cc2)c1/C=C/[C@@H](O)C[C@@H](O)CC(=O)[O-].CC(C)c1nc(N(C)S(C)(=O)=O)nc(-c2ccc(F)cc2)c1/C=C/[C@@H](O)C[C@@H](O)CC(=O)[O-].[Ca+2] , is 83.2

Lab note: measured efflux ratio at 2 µM of COc1cc2nc(N3CCN(C(=O)c4ccco4)CC3)nc(N)c2cc1OC was 10.5

----------
Answer each item with its documented Papp B→A at 2 µM.
# Method Notes: Apparent permeability from basolateral to apical side of MDCK cells at 2 uM after 60 to 120 mins
# Format: ADME, cell-based, Canis lupus familiaris
# Condition Label: dog
State the value with its unit after it.

CC(C)c1nc(N(C)S(C)(=O)=O)nc(-c2ccc(F)cc2)c1/C=C/[C@@H](O)C[C@@H](O)CC(=O)[O-].CC(C)c1nc(N(C)S(C)(=O)=O)nc(-c2ccc(F)cc2)c1/C=C/[C@@H](O)C[C@@H](O)CC(=O)[O-].[Ca+2] has a reported Papp B→A at 2 µM of 0.49 ×10⁻⁶ cm/s

Documented Papp B→A at 2 µM of COc1cc2nc(N3CCN(C(=O)c4ccco4)CC3)nc(N)c2cc1OC : 13.6 ×10⁻⁶ cm/s

----------
# Method Notes: Oral bioavailability in human at 40 mg
# Format: ADME, organism-based
# Condition Label: in vivo
Property Name: bioavailability (%)
Write the number in % without appending the unit.

Reported bioavailability of CC(C)c1nc(N(C)S(C)(=O)=O)nc(-c2ccc(F)cc2)c1/C=C/[C@@H](O)C[C@@H](O)CC(=O)[O-].CC(C)c1nc(N(C)S(C)(=O)=O)nc(-c2ccc(F)cc2)c1/C=C/[C@@H](O)C[C@@H](O)CC(=O)[O-].[Ca+2] : 20

----------
# Method Notes: Apparent permeability from apical to basolateral side of human Caco2 cells at 2 uM after 60 to 120 mins
# Format: ADME, cell-based
# Condition Label: Caco-2
So I've got a bunch of compounds here, and I need their Papp A→B at 2 µM values.
State just the number; it will be interpreted in ×10⁻⁶ cm/s.

Please fill in: Papp A→B at 2 µM reported for COc1cc2nc(N3CCN(C(=O)c4ccco4)CC3)nc(N)c2cc1OC = 3.92

Lab note: CC(C)c1nc(N(C)S(C)(=O)=O)nc(-c2ccc(F)cc2)c1/C=C/[C@@H](O)C[C@@H](O)CC(=O)[O-].CC(C)c1nc(N(C)S(C)(=O)=O)nc(-c2ccc(F)cc2)c1/C=C/[C@@H](O)C[C@@H](O)CC(=O)[O-].[Ca+2] gave Papp A→B at 2 µM of 0.25

----------
# Method Notes: Cellular uptake in human Caco2 cells after 30 mins by Michaelis-Menten equation analysis
# Type: ADME, cell-based, Caco-2
# Condition Label: human, Caco-2 cells
Property Name: Km at 0.5 h (µM)
I only need the number, in µM, no unit after it.

Entry under test: CC(C)c1nc(N(C)S(C)(=O)=O)nc(-c2ccc(F)cc2)c1/C=C/[C@@H](O)C[C@@H](O)CC(=O)[O-].CC(C)c1nc(N(C)S(C)(=O)=O)nc(-c2ccc(F)cc2)c1/C=C/[C@@H](O)C[C@@H](O)CC(=O)[O-].[Ca+2] . Its Km at 0.5 h was 4.21
